Attribute: normalised inhibition (eCFP-eYFP dual reporter)
# target or system: UBE2J1
# measurement protocol: reporter assay of Huesken 2005
# measurement parameters: siRNA
Oligonucleotides are written 5' to 3', each unit as a sugar letter and its base; * is a phosphorothioate linkage, no mark a phosphodiester; rarer units and linkages stand in square brackets, end groups in braces. Plain capitals give the bases only. d = 2'-deoxy (DNA); r = 2'-OH (RNA)
measured metric: normalised inhibition (eCFP-eYFP dual reporter) (%)

| substance | target or system | reported result |
| --- | --- | --- |
| sense rGrCrArGrArArGrUrCrArArUrUrCrArUrCrUrGdTdT / antisense rCrArGrArUrGrArArUrUrGrArCrUrUrCrUrGrCdCdT | UBE2J1 | 54.4 |
| sense rArUrGrArArArCrCrArCrCrArArGrCrArUrUrAdTdT / antisense rUrArArUrGrCrUrUrGrGrUrGrGrUrUrUrCrArUdGdG | UBE2J1 | 68.1 |
| sense rCrArGrArArGrUrCrArArUrUrCrArUrCrUrGrGdTdT / antisense rCrCrArGrArUrGrArArUrUrGrArCrUrUrCrUrGdCdC | UBE2J1 | 60.5 |
| sense rArCrArArArArGrGrArGrArGrGrGrArGrCrCrAdTdT / antisense rUrGrGrCrUrCrCrCrUrCrUrCrCrUrUrUrUrGrUdTdG | UBE2J1 | 41.7 |
| sense rArCrArGrCrArUrUrArUrUrArGrCrCrArUrCrAdTdT / antisense rUrGrArUrGrGrCrUrArArUrArArUrGrCrUrGrUdCdC | UBE2J1 | 54.7 |
| sense rGrArArGrUrCrArArUrUrCrArUrCrUrGrGrArAdTdT / antisense rUrUrCrCrArGrArUrGrArArUrUrGrArCrUrUrCdTdG | UBE2J1 | 75.3 |

====

# target or system: Cacnb1 (rat)
# measurement protocol: reporter assay of Huesken 2005
# measurement parameters: siRNA
Oligonucleotides are given in HELM: sugar(base)linkage, 5' to 3'; d 2'-deoxyribose, r ribose, m 2'-O-methylribose, p phosphate. ss, as = sense and antisense strand
Response key: Y means normalised inhibition (eCFP-eYFP dual reporter) >= 80%; N means normalised inhibition (eCFP-eYFP dual reporter) < 80%.

substance	answer label
RNA1{r(U)p.r(A)p.r(C)p.r(A)p.r(U)p.r(C)p.r(C)p.r(G)p.r(C)p.r(U)p.r(G)p.r(A)p.r(G)p.r(A)p.r(G)p.r(G)p.r(C)p.r(A)p.r(G)p.d(T)p.d(T)}|RNA2{r(C)p.r(U)p.r(G)p.r(C)p.r(C)p.r(U)p.r(C)p.r(U)p.r(C)p.r(A)p.r(G)p.r(C)p.r(G)p.r(G)p.r(A)p.r(U)p.r(G)p.r(U)p.r(A)p.d(G)p.d(A)}$$$RNA1{StrandType:ss}|RNA2{StrandType:as}$	N
RNA1{r(U)p.r(U)p.r(A)p.r(G)p.r(C)p.r(C)p.r(C)p.r(A)p.r(G)p.r(C)p.r(U)p.r(C)p.r(G)p.r(A)p.r(G)p.r(A)p.r(A)p.r(A)p.r(G)p.d(T)p.d(T)}|RNA2{r(C)p.r(U)p.r(U)p.r(U)p.r(C)p.r(U)p.r(C)p.r(G)p.r(A)p.r(G)p.r(C)p.r(U)p.r(G)p.r(G)p.r(G)p.r(C)p.r(U)p.r(A)p.r(A)p.d(G)p.d(G)}$$$RNA1{StrandType:ss}|RNA2{StrandType:as}$	N
RNA1{r(G)p.r(A)p.r(A)p.r(C)p.r(C)p.r(G)p.r(C)p.r(A)p.r(C)p.r(C)p.r(A)p.r(U)p.r(G)p.r(G)p.r(C)p.r(U)p.r(A)p.r(C)p.r(C)p.d(T)p.d(T)}|RNA2{r(G)p.r(G)p.r(U)p.r(A)p.r(G)p.r(C)p.r(C)p.r(A)p.r(U)p.r(G)p.r(G)p.r(U)p.r(G)p.r(C)p.r(G)p.r(G)p.r(U)p.r(U)p.r(C)p.d(A)p.d(G)}$$$RNA1{StrandType:ss}|RNA2{StrandType:as}$	N
RNA1{r(G)p.r(A)p.r(G)p.r(U)p.r(G)p.r(A)p.r(A)p.r(A)p.r(U)p.r(C)p.r(G)p.r(A)p.r(G)p.r(C)p.r(G)p.r(G)p.r(A)p.r(U)p.r(C)p.d(T)p.d(T)}|RNA2{r(G)p.r(A)p.r(U)p.r(C)p.r(C)p.r(G)p.r(C)p.r(U)p.r(C)p.r(G)p.r(A)p.r(U)p.r(U)p.r(U)p.r(C)p.r(A)p.r(C)p.r(U)p.r(C)p.d(T)p.d(G)}$$$RNA1{StrandType:ss}|RNA2{StrandType:as}$	Y

====

# target or system: NOG
# measurement protocol: reporter assay of Huesken 2005
# measurement parameters: siRNA
Oligonucleotides are written 5' to 3', each unit as a sugar letter and its base; * is a phosphorothioate linkage, no mark a phosphodiester; rarer units and linkages stand in square brackets, end groups in braces. Plain capitals give the bases only. d = 2'-deoxy (DNA); r = 2'-OH (RNA)
measured metric: normalised inhibition (eCFP-eYFP dual reporter) (%)

| substance | reported result |
| --- | --- |
| sense rUrGrGrUrCrGrCrArGrArCrArUrUrCrUrGrCrCdTdT / antisense rGrGrCrArGrArArUrGrUrCrUrGrCrGrArCrCrAdCdA | 40.5 |
| sense rArGrArGrUrUrCrUrCrCrGrArGrGrGrCrUrUrGdTdT / antisense rCrArArGrCrCrCrUrCrGrGrArGrArArCrUrCrUdAdG | 55.1 |
| sense rGrCrUrUrCrArGrUrArArGrCrGrCrUrCrGrUrGdTdT / antisense rCrArCrGrArGrCrGrCrUrUrArCrUrGrArArGrCdAdG | 84.7 |
| sense rCrGrCrUrGrCrUrGrCrGrCrUrCrGrCrUrGrCrUdTdT / antisense rArGrCrArGrCrGrArGrCrGrCrArGrCrArGrCrGdTdC | 73.4 |
| sense rGrCrUrGrCrUrGrCrGrCrUrCrGrCrUrGrCrUrCdTdT / antisense rGrArGrCrArGrCrGrArGrCrGrCrArGrCrArGrCdGdT | 78.8 |
| sense rUrUrGrGrCrCrCrArGrGrGrCrArArGrArArGrCdTdT / antisense rGrCrUrUrCrUrUrGrCrCrCrUrGrGrGrCrCrArAdGdC | 41.1 |

====

# target or system: DENND5A
# measurement protocol: reporter assay of Huesken 2005
# measurement parameters: siRNA
Oligonucleotides are written 5' to 3', each unit as a sugar letter and its base; * is a phosphorothioate linkage, no mark a phosphodiester; rarer units and linkages stand in square brackets, end groups in braces. Plain capitals give the bases only. d = 2'-deoxy (DNA); r = 2'-OH (RNA)
Decide using normalised inhibition (eCFP-eYFP dual reporter): a value greater than or equal to 70% is Condition met, a smaller one is Condition not met.

| substance | answer label |
| --- | --- |
| sense rCrCrUrUrArUrGrGrUrCrCrCrArCrCrUrGrUrUdTdT / antisense rArArCrArGrGrUrGrGrGrArCrCrArUrArArGrGdCdT | Condition not met |
| sense rCrUrGrArUrCrGrUrArCrCrArArGrCrArArGrAdTdT / antisense rUrCrUrUrGrCrUrUrGrGrUrArCrGrArUrCrArGdAdA | Condition not met |
| sense rArGrArArCrUrUrGrGrGrGrArArGrCrUrUrArCdTdT / antisense rGrUrArArGrCrUrUrCrCrCrCrArArGrUrUrCrUdGdG | Condition met |
| sense rArCrUrGrGrGrGrUrGrArGrCrCrUrGrGrArArAdTdT / antisense rUrUrUrCrCrArGrGrCrUrCrArCrCrCrCrArGrUdTdC | Condition not met |
| sense rGrCrArArUrArArGrGrArUrCrUrCrArArArGrUdTdT / antisense rArCrUrUrUrGrArGrArUrCrCrUrUrArUrUrGrCdTdG | Condition not met |
| sense rArGrGrGrArUrGrGrUrGrCrCrArGrCrCrCrUrUdTdT / antisense rArArGrGrGrCrUrGrGrCrArCrCrArUrCrCrCrUdGdG | Condition met |

====

# target or system: P2rx2 (rat)
# measurement protocol: reporter assay of Huesken 2005
# measurement parameters: siRNA
Oligonucleotides are written 5' to 3', each unit as a sugar letter and its base; * is a phosphorothioate linkage, no mark a phosphodiester; rarer units and linkages stand in square brackets, end groups in braces. Plain capitals give the bases only. d = 2'-deoxy (DNA); r = 2'-OH (RNA)
normalised inhibition (eCFP-eYFP dual reporter) for assorted substances
measured metric: normalised inhibition (eCFP-eYFP dual reporter)

| substance | target or system | reported result |
| --- | --- | --- |
| sense rGrCrUrCrUrArCrCrUrGrCrCrArUrUrCrArGrAdTdT / antisense rUrCrUrGrArArUrGrGrCrArGrGrUrArGrArGrCdTdG | P2rx2 (rat) | 79.4% |
| sense rArArCrUrGrUrGrArCrCrUrGrGrArCrUrUrGrUdTdT / antisense rArCrArArGrUrCrCrArGrGrUrCrArCrArGrUrUdCdC | P2rx2 (rat) | 38.6% |
| sense rUrCrArGrCrCrArCrCrCrArGrCrCrCrUrCrCrAdTdT / antisense rUrGrGrArGrGrGrCrUrGrGrGrUrGrGrCrUrGrAdTdC | P2rx2 (rat) | 51.2% |
| sense rGrCrCrArUrArArGrArArGrUrUrCrGrArCrArAdTdT / antisense rUrUrGrUrCrGrArArCrUrUrCrUrUrArUrGrGrCdTdG | P2rx2 (rat) | 88.6% |
| sense rGrGrGrArUrUrCrGrCrArCrArGrGrGrCrArCrUdTdT / antisense rArGrUrGrCrCrCrUrGrUrGrCrGrArArUrCrCrCdAdT | P2rx2 (rat) | 66% |
